Entry source: patent US20250313560A1

Test system: human hepatocytes
Assay: Metabolic stability in human hepatocytes
Settings: 1 μM test compound, 50% human serum, percentage of liver blood flow
propertyLabel: Hepatic clearance - QH[%] in human hepatocytes
Answer by giving the amount and then stating its unit.

INSERT INTO assay_data (structurenotation, studytarget, result) VALUES
  ('C[C@@H](NC(=O)c1cc(N2CCC(N3CCC[C@H]3CO)CC2)c2ncnn2c1)c1cccc(C(F)F)c1F', 'human hepatocytes', '16%'),
  ('Cc1nc2c([C@H]3CC[C@H](N4CCCC4)CC3)cc(C(=O)N[C@H](C)c3cccc(C(F)F)c3F)cn2n1', 'human hepatocytes', '10%'),
  ('C[C@@H](NC(=O)c1cc(N2CCC(N3CC[C@@H](CO)C3)CC2)c2ncnn2c1)c1cccc(C(C)(F)F)c1F', 'human hepatocytes', '24%');

With those in mind, consider the next compound.
human hepatocytes data for C[C@@H](NC(=O)c1cc(N2CCC(N3CCC4(CC4)C3)CC2)c2ncnn2c1)c1cccc(C(F)F)c1F ; its Hepatic clearance - QH[%] in human hepatocytes: 18%

---

Test system: human hepatocytes
Assay: Metabolic stability in human hepatocytes
Details: 1 μM test compound, 50% human serum, percentage of liver blood flow
propertyLabel: Hepatic clearance - QH[%] in human hepatocytes

INSERT INTO results (molecule, result) VALUES
  ('C[C@@H](NC(=O)c1cc([C@H]2CC[C@H](N3CCC(F)C(O)C3)CC2)c2ncnn2c1)c1cccc(C(F)(F)F)c1F (single isomer, unassigned) [Example trans-E70b]', '19%'),
  ('C[C@@H]1C[C@H](O)CN1C1CCN(c2cc(C(=O)N[C@H](C)c3cccc(C(F)(F)F)c3F)cn3ncnc23)CC1', '22%'),
  ('C[C@@H](NC(=O)c1cc(N2CCC3(CCCCN3)CC2)c2ncnn2c1)c1cccc(C(F)(F)F)c1F', '<4%');

Batch of 3 molecules: report Hepatic clearance - QH[%] in human hepatocytes for each.
1. C[C@@H](NC(=O)c1cc([C@H]2CC[C@H](N3CCC[C@H](O)C3)CC2)c2nncn2c1)c1cccc(C(F)F)c1F
2. C[C@@H](NC(=O)c1cc(N2CCC(NC3COCC3O)CC2)c2ncnn2c1)c1cccc(C(F)(F)F)c1F (single isomer, unassigned) [Example cis-E41a]
3. C[C@@H](NC(=O)c1cc(N2CCC(N3CCC4(CC4)C3)CC2)c2ncnn2c1)c1cccc(C(F)(F)F)c1F

1. 15%
2. 37%
3. 15%

---

Would you mind telling me the reported pIC50 of each entry?
Tested on: ERK phosphorylation in NCI-H358 SOS2 KO cells (KRAS G12C)
Assay: Erk phosphorylation assay
Assay type: cell-based, human
Details: NCI-H358 SOS2 KO cells, EGF stimulated; average of at least two measurements; read-out: pERK IC50
Answers are plain numbers, as −log10 of the molar value.

Give pIC50 for each of the items listed below.
1. C[C@@H](NC(=O)c1cc(N2CCC(NC3COCC3O)CC2)c2ncnn2c1)c1cccc(C(F)(F)F)c1F (single isomer, unassigned) [Example cis-E41a]
2. C[C@@H](NC(=O)c1cc(N2CCC(N3CCCC(O)CC3)CC2)c2ncnn2c1)c1cccc(C(F)F)c1F (single isomer, unassigned) [Example E17a]

6.33
7.03

Parameters: items (list). Returns: pIC50 for each item.
1. C[C@@H](NC(=O)c1cc(N2CCC(NC3COCC3O)CC2)c2ncnn2c1)c1cccc(C(F)(F)F)c1F (single isomer, unassigned) [Example cis-E41b]
2. C[C@@H](NC(=O)c1cc([C@H]2CC[C@H](N3CCC(F)C(O)C3)CC2)c2ncnn2c1)c1cccc(C(F)(F)F)c1F (single isomer, unassigned) [Example trans-E70b]
3. C[C@@H](NC(=O)c1cc(N2CCC(NC3COCC3O)CC2)c2ncnn2c1)c1cccc(C(F)F)c1F (single isomer, unassigned) [Example cis-E16b]

6.44
6.77
6.50

---

Target: SOS1 and KRAS G12D (Homo sapiens (Human), UniProt Q07889)
Sequence (Q07889 564-1049, stated change not applied): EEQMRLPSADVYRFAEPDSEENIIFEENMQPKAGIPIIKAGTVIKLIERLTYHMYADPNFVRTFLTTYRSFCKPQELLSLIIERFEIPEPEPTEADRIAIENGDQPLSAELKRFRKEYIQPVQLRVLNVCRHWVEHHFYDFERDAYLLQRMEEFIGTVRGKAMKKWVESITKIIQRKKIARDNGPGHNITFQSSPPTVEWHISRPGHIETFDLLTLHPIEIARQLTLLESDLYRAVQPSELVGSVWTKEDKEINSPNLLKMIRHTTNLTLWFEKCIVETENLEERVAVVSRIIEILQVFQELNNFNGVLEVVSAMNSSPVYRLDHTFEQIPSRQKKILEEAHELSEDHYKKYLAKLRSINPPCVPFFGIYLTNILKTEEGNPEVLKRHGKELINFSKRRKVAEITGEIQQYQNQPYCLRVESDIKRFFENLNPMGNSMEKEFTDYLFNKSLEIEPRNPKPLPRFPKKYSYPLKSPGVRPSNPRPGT
Test: KRAS::SOS1 AlphaScreen binding assay (KRAS G12D)
Conditions: average of at least two measurements
propertyLabel: IC50 (nM)
Numbers only, in nM.

The examples below pair each entry with its known result.
INSERT INTO results (compound, unit, result) VALUES
  ('C[C@@H](NC(=O)c1cc(N2CCC(N3CCC(O)C(C)(O)C3)CC2)c2ncnn2c1)c1cccc(C(F)(F)F)c1F (stereo partly drawn) [Example cis-E29]', 'nM', 46),
  ('C[C@@H](NC(=O)c1cc([C@]2(O)CC[C@@H](N3CC[C@@H](F)C3)CC2)c2ncnn2c1)c1cccc(C(F)F)c1F [Example E65]', 'nM', 93),
  ('C[C@@H](NC(=O)c1cc(N2CCC(N3CCC4(CC4)C3)CC2)c2ncnn2c1)c1cccc(C(F)F)c1F [Example E8]', 'nM', 69),
  ('C[C@@H](NC(=O)c1cc(N2CCC(N3CCCCC3)CC2)c2ncnn2c1)c1cccc(C(F)(F)F)c1F [Example E49]', 'nM', 43),
  ('C[C@@H](NC(=O)c1cc(N2CCC(NC3COCC3O)CC2)c2ncnn2c1)c1cccc(C(F)(F)F)c1F (single isomer, unassigned) [Example cis-E41b]', 'nM', 38);

Need IC50 for each of these compounds.
1. C[C@@H](NC(=O)c1cc([C@H]2CC[C@H](N3CC[C@](C)(O)C3)CC2)c2ncnn2c1)c1cccc(C(F)F)c1F [Example E59]
2. C[C@@H](NC(=O)c1cc(N2CCC(N3CC[C@](C)(O)C3)CC2)c2ncnn2c1)c1cccc(C(F)F)c1F [Example E4]

41
70

I would be grateful if you could provide IC50 for each of the following entries.
1. C[C@@H](NC(=O)c1cc(N2CCC(N3CC4CC4(CO)C3)CC2)c2ncnn2c1)c1cccc(C(F)F)c1F (single isomer, unassigned) [Example cis-E21b]
2. CC(C)N1CC=C(c2cc(C(=O)N[C@H](C)c3cccc(C(F)(F)F)c3F)cn3cnnc23)CC1 [Example E83]
3. C[C@@H](NC(=O)c1cc(C2=CCC(N3CCC[C@H](O)C3)CC2)c2nncn2c1)c1cccc(C(F)F)c1F (some centres unmarked) [Example E82]
4. C[C@@H](NC(=O)c1cc(N2CCC(N3C[C@H](O)C4(CC4)C3)CC2)c2ncnn2c1)c1cccc(C(F)F)c1F [Example E3]
5. C[C@@H](NC(=O)c1cc(N2CCC(N3CC[C@@H](O)C3)CC2)c2ncnn2c1)c1cccc(C(F)F)c1F [Example E2]
6. C[C@@H](NC(=O)c1cc(N2CCC(N3C[C@@H](O)[C@@H]3C)CC2)c2ncnn2c1)c1cccc(C(F)(F)F)c1F [Example E32]

1: 82; 2: 26; 3: 15; 4: 50; 5: 46; 6: 43

Field IC50 (system: SOS1 and KRAS G12D (Homo sapiens (Human), UniProt Q07889)) for entry C[C@@H](NC(=O)c1cc([C@H]2CC[C@H](N3CCC(F)C(O)C3)CC2)c2ncnn2c1)c1cccc(C(F)F)c1F (single isomer, unassigned) [trans-E61a] = 41

---

Task for the reader: assign each of the following compounds its reported IC50.
Target: SOS1 and KRAS G12D (Homo sapiens (Human), UniProt Q07889)
Assay: KRAS::SOS1 AlphaScreen binding assay (KRAS G12D)
Conditions: average of at least two measurements
Give bare numbers, in nM.

As a guide, the following entries are already answered.
INSERT INTO assay_data (compound, result) VALUES
  ('C[C@H](CO)NC1CCN(c2cc(C(=O)N[C@H](C)c3cccc(C(F)(F)F)c3F)cn3ncnc23)CC1', 31),
  ('C[C@@H](NC(=O)c1cc(N2CCC(N3CCCC(O)CC3)CC2)c2ncnn2c1)c1cccc(C(F)(F)F)c1F (single isomer, unassigned) [Example E43b]', 35);

Proceed to the following item.
Reported IC50 of Cc1nc2c([C@H]3CC[C@H](N4CCCC4)CC3)cc(C(=O)N[C@H](C)c3cccc(C(F)F)c3F)cn2n1 : 37

---

Molecular target: SOS1 and KRAS G12C (Homo sapiens (Human))
Sequence (Q07889 564-1049, stated change not applied): as above
Assay: KRAS::SOS1 AlphaScreen binding assay (KRAS G12C)
Details: average of at least two measurements
Procedure: Low IC50 values are indicative of high potency of the SOS1 inhibitor compound in this assay setting: […] Compounds are diluted to a final start concentration of 100 μM and are tested in duplicate. Assay-ready plates (ARPs) are generated using an Access Labcyte Workstation with a Labcyte Echo 550 or 555 acoustic dispenser. […] Result calculation: IC50 values are calculated and analyzed using a 4 parametric logistic model. […]
# strict inequality: IC50 < 40 nM yields TRUE, everything else yields FALSE

Answered examples (3):
INSERT INTO measurements (compound, studytarget, category) VALUES
  ('C[C@@H](NC(=O)c1cc(N2CCC3(CCCN3C)CC2)c2ncnn2c1)c1cccc(C(F)(F)F)c1F', 'SOS1 and KRAS G12C (Homo sapiens (Human))', 'TRUE'),
  ('C[C@@H](NC(=O)c1cc([C@H]2CC[C@H](N3CCC[C@@H](O)C3)CC2)c2ncnn2c1)c1cccc(C(F)F)c1F', 'SOS1 and KRAS G12C (Homo sapiens (Human))', 'TRUE'),
  ('C[C@@H](NC(=O)c1cc(N2CCC(N3CCCC(O)CC3)CC2)c2ncnn2c1)c1cccc(C(F)(F)F)c1F (single isomer, unassigned) [Example E43a]', 'SOS1 and KRAS G12C (Homo sapiens (Human))', 'FALSE');

Next item in the queue.
Would you kindly verify if IC50 of C[C@@H](NC(=O)c1cc([C@]2(O)CC[C@@H](N3CC[C@H](F)C3)CC2)c2ncnn2c1)c1cccc(C(F)(F)F)c1F is strictly less than 40 nM?
FALSE
